Cited source: paper PMC5540273

Molecular target: DDR2 (Homo sapiens, UniProt Q16832)
Sequence (Q16832 22-855): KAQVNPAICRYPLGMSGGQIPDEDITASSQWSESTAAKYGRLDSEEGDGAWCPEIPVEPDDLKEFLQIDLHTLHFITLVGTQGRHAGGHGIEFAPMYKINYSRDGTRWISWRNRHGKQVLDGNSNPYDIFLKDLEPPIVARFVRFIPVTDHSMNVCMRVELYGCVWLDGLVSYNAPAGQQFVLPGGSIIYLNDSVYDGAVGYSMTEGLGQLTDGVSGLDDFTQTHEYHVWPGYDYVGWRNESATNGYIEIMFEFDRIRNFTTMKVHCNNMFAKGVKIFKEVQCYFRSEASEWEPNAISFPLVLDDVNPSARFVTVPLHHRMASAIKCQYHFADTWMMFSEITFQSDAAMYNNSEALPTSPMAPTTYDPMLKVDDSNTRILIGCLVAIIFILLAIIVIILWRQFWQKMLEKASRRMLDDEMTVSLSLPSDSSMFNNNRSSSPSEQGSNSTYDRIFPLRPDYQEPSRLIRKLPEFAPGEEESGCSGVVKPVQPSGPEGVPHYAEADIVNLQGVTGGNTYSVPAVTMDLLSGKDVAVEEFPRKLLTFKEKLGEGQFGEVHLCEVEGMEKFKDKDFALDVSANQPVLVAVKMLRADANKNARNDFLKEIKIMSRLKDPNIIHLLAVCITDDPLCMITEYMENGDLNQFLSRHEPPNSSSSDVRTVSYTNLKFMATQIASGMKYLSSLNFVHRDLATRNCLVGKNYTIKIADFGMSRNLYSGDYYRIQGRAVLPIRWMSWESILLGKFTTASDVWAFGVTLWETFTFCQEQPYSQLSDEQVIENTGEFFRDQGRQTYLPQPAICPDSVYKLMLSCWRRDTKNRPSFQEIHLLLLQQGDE
Experiment: KINOMEscan competition binding
Details: read-out: %Inh DDR2

| Compound | Unit symbol | inhibition at 1 µM |
| --- | --- | --- |
| Cn1cc(-c2cnc(N)c3c(-c4ccc5c(c4)CCN5C(=O)Cc4ccccc4)csc23)cn1 [UNC10225012A] | % | 24 |
| CS(=O)(=O)Cc1ccc(Nc2nccc(-c3c(-c4cccc(NC(=O)C5CCCCC5)c4)nn4ncccc34)n2)cc1 [UNC10225159A] | % | 54 |
| COc1cccc(OC)c1C(=O)Nc1cccc(-c2nn3ccccc3c2-c2ccnc(Nc3cccc(F)c3)n2)c1 [UNC10225310A] | % | 57 |
| Cc1ccc(NC(=O)Nc2cccc(C(F)(F)F)c2)cc1 [UNC10225187A] | % | 65 |
| O=c1cc(N2CCOCC2)nc2n(Cc3cccc(Cl)c3Cl)c(C3CC3)nn12 [UNC10225469A] | % | 0 |

----------
Target: EIF2AK1 (Homo sapiens, UniProt Q9BQI3)
Sequence (Q9BQI3 whole entry): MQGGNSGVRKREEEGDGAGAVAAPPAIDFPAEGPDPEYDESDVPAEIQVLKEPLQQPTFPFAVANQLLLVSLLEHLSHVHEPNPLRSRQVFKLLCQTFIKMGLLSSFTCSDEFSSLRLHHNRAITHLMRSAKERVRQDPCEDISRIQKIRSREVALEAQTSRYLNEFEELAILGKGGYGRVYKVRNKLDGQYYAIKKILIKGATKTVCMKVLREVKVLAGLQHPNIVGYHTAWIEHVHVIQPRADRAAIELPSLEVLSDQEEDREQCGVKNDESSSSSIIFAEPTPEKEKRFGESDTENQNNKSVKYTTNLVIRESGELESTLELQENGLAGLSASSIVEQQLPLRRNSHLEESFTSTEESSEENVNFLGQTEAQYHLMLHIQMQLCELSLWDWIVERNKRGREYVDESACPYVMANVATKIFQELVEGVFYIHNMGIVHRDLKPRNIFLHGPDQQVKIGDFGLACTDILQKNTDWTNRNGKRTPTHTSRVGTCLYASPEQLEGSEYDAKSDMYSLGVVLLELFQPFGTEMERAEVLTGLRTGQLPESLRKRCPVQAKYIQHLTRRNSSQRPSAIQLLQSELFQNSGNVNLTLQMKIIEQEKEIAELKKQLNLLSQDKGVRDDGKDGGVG
Assay: KINOMEscan competition binding
Details: read-out: %Inh EIF2AK1
Listing of entries alongside the reported inhibition at 1 µM.

| Compound | inhibition at 1 µM |
| --- | --- |
| Cc1ccc(NC(=O)Nc2cccc(C(F)(F)F)c2)cc1 [UNC10225187A] | 0% |
| O=c1cc(N2CCOCC2)nc2n(Cc3cccc(Cl)c3Cl)c(C3CC3)nn12 [UNC10225469A] | 0% |
| CS(=O)(=O)Cc1ccc(Nc2nccc(-c3c(-c4cccc(NC(=O)C5CCCCC5)c4)nn4ncccc34)n2)cc1 [UNC10225159A] | 22% |
| COc1cccc(OC)c1C(=O)Nc1cccc(-c2nn3ccccc3c2-c2ccnc(Nc3cccc(F)c3)n2)c1 [UNC10225310A] | 0% |
| Cn1cc(-c2cnc(N)c3c(-c4ccc5c(c4)CCN5C(=O)Cc4ccccc4)csc23)cn1 [UNC10225012A] | 7% |

----------
Target: CIT (Homo sapiens)
Sequence (O14578 whole entry): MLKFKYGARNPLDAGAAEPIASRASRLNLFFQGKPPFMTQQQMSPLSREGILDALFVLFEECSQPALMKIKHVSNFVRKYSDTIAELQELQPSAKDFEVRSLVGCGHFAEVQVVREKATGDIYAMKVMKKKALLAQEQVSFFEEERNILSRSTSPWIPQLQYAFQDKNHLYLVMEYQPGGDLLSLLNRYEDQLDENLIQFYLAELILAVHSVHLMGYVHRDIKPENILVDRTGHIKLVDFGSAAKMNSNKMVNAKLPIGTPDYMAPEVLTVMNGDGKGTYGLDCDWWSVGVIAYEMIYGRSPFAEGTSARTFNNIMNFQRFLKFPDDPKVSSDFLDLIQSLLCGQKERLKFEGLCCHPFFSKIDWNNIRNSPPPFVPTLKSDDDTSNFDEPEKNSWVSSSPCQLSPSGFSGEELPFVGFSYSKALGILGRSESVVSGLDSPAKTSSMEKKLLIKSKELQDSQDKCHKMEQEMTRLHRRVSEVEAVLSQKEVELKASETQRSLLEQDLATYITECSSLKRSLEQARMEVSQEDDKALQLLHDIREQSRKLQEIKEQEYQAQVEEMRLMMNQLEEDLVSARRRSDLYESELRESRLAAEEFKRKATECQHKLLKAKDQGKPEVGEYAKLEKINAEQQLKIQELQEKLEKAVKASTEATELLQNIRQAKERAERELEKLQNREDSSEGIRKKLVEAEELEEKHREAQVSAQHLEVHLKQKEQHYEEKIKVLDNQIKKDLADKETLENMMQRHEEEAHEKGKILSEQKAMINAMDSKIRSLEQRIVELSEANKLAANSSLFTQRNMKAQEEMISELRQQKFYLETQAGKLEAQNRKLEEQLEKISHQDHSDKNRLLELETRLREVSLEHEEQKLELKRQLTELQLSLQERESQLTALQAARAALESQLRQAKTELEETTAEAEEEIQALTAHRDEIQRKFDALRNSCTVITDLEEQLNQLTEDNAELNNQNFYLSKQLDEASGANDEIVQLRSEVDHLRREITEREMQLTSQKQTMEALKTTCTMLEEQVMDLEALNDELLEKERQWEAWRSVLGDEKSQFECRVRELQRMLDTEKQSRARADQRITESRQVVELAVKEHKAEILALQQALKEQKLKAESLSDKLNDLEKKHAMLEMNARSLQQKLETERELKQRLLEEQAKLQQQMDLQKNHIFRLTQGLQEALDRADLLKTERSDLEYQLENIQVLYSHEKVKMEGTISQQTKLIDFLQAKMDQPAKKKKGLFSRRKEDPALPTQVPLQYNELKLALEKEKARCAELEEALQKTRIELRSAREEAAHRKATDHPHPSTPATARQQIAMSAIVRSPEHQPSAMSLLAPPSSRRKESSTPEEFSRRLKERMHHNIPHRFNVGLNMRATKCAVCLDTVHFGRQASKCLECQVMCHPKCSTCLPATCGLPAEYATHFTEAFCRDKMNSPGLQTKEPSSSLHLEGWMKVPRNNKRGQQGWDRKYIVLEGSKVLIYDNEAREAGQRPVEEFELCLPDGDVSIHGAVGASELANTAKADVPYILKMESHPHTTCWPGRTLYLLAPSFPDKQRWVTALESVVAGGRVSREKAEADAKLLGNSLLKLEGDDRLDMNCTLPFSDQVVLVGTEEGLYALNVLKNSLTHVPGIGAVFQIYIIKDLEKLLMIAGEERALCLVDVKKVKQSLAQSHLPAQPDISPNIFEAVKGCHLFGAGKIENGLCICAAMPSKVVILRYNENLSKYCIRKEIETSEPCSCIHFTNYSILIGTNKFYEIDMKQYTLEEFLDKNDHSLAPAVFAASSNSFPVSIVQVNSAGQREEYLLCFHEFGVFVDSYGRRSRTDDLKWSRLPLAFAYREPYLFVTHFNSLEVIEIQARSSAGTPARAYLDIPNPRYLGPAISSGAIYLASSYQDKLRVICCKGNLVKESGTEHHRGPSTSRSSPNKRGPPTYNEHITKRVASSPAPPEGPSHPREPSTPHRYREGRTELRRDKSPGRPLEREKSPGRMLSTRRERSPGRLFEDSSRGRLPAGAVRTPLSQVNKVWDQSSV
Test: KINOMEscan competition binding
Details: read-out: %Inh CIT

| Compound | Unit symbol | inhibition at 1 µM |
| --- | --- | --- |
| Cc1ccc(NC(=O)Nc2cccc(C(F)(F)F)c2)cc1 [UNC10225187A] | % | 29 |
| Cn1cc(-c2cnc(N)c3c(-c4ccc5c(c4)CCN5C(=O)Cc4ccccc4)csc23)cn1 [UNC10225012A] | % | 0 |
| CS(=O)(=O)Cc1ccc(Nc2nccc(-c3c(-c4cccc(NC(=O)C5CCCCC5)c4)nn4ncccc34)n2)cc1 [UNC10225159A] | % | 10 |
| COc1cccc(OC)c1C(=O)Nc1cccc(-c2nn3ccccc3c2-c2ccnc(Nc3cccc(F)c3)n2)c1 [UNC10225310A] | % | 36 |
| O=c1cc(N2CCOCC2)nc2n(Cc3cccc(Cl)c3Cl)c(C3CC3)nn12 [UNC10225469A] | % | 0 |

----------
Target: UniProt P10721
Sequence (P10721 546-976 limits assumed): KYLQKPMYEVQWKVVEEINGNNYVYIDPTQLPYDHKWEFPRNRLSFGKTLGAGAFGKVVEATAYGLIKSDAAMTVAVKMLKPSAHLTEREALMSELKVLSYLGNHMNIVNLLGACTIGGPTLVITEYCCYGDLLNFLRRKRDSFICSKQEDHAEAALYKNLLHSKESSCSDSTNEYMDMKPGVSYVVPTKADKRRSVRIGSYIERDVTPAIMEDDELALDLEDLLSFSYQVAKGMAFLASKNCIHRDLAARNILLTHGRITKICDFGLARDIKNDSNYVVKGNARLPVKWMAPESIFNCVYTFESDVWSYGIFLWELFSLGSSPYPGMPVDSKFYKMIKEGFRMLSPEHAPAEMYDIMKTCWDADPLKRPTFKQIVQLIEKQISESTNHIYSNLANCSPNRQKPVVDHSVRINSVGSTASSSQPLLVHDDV
Assay: KINOMEscan competition binding
Settings: read-out: %Inh KIT-autoinhibited
Classification field: YES = inhibition at 1 µM at or over 10%; NO = inhibition at 1 µM under 10%.

| Molecule | Measured on | Class name |
| --- | --- | --- |
| O=c1cc(N2CCOCC2)nc2n(Cc3cccc(Cl)c3Cl)c(C3CC3)nn12 [UNC10225469A] | UniProt P10721 | YES |
| CS(=O)(=O)Cc1ccc(Nc2nccc(-c3c(-c4cccc(NC(=O)C5CCCCC5)c4)nn4ncccc34)n2)cc1 [UNC10225159A] | UniProt P10721 | YES |
| COc1cccc(OC)c1C(=O)Nc1cccc(-c2nn3ccccc3c2-c2ccnc(Nc3cccc(F)c3)n2)c1 [UNC10225310A] | UniProt P10721 | YES |
| Cn1cc(-c2cnc(N)c3c(-c4ccc5c(c4)CCN5C(=O)Cc4ccccc4)csc23)cn1 [UNC10225012A] | UniProt P10721 | YES |
| Cc1ccc(NC(=O)Nc2cccc(C(F)(F)F)c2)cc1 [UNC10225187A] | UniProt P10721 | NO |
